Measured values drawn from ChEMBL document CHEMBL3991601 for this set.

Target: Serine/threonine-protein kinase Nek3 (Homo sapiens); also: in the data inactive means no Kd found up to 30 µM
Sequence (P51956 whole entry): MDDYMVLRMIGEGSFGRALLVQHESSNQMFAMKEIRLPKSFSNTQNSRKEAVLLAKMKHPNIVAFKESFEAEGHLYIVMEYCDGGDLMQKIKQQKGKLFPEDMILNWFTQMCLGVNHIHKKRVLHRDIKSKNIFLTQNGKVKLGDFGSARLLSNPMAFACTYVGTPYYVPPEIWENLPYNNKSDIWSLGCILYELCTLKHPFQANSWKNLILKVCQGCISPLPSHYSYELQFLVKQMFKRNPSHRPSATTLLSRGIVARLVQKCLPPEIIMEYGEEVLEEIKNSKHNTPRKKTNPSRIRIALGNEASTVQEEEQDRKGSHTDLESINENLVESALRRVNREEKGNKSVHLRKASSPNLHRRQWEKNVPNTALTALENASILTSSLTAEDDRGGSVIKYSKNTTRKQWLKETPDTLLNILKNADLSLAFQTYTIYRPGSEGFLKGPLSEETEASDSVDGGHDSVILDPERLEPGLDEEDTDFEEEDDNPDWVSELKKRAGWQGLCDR
Active and inactive are the calls of the source.
Give your call using only these classes: active, inactive

Example entries begin here.
compound	measured-target	assigned-category
Cc1cc(C(=O)NOCCO)c(Nc2ccc(I)cc2F)n(C)c1=O	Serine/threonine-protein kinase Nek3 (Homo sapiens)	inactive
COc1cc([C@@H]2c3cc4c(cc3[C@H](O)[C@H]3COC(=O)[C@@H]23)OCO4)cc(OC)c1OC	Serine/threonine-protein kinase Nek3 (Homo sapiens)	inactive
CN1CCN(CCOc2cc(OC3CCOCC3)c3c(Nc4c(Cl)ccc5c4OCO5)ncnc3c2)CC1	Serine/threonine-protein kinase Nek3 (Homo sapiens)	inactive
N#CC[C@H](C1CCCC1)n1cc(-c2ncnc3[nH]ccc23)cn1	Serine/threonine-protein kinase Nek3 (Homo sapiens)	active

Test call for this compound, please: Cc1nc(Nc2n[nH]c3c2CN(C(=O)N[C@H](CN(C)C)c2ccccc2)C3(C)C)c2sccc2n1
inactive

Test call for this compound, please: CN(C[C@@H]1COCCO1)S(=O)(=O)Nc1ccc2ccc3ncc(-c4cnn(C)c4)cc3c(=O)c2c1
inactive

Test call for this compound, please: O=C1NC(=O)[C@@H](c2cn3c4c(cccc24)CCC3)[C@@H]1c1c[nH]c2ccccc12 [TIVANTINIB]
inactive

Test call for this compound, please: CN1C/C=C/CCOc2cccc(c2)-c2ccnc(n2)Nc2cccc(c2)C1
inactive

Test call for this compound, please: C[C@@H](NC(=O)c1ncnc(N)c1Cl)c1ncc(C(=O)Nc2cc(C(F)(F)F)c(Cl)cn2)s1
inactive

Test call for this compound, please: COc1cc(Nc2ncc3c(n2)-c2ccc(Cl)cc2C(c2c(F)cccc2OC)=NC3)ccc1C(=O)O
inactive

Test call for this compound, please: COc1cc2ncnc(Oc3cccc(NC(=O)Nc4cc(C(C)(C)C(F)(F)F)on4)c3)c2cc1OC
inactive
